B1: FANCE (parent)
chain: AQVLMLGQILELPWKEETFLVLQS

Variants of: B1
run_description: protein stability index of a GFP-peptide fusion (GPS, HEK-293T) (PSI 1-6); higher = more stable;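 note: lentivirally expressed fusions sorted by FACS into six bins by GFP to DsRed ratio, PSI derived from sequencing read proportions per bin multiplied by bin number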
conditions: c terminus: a fixed tail appended
experimental_endpoint: protein stability index

polymer_sequence: AQVLMLGQILELPWKEETFLVLYS [Q23Y]
protein stability index: 3.54
//
polymer_sequence: AQVLMLGQILEAPWKEETFLVLQS [L12A]
protein stability index: 3.6
//
polymer_sequence: AQVLMLGQILELPWKEETFSVLQS [L20S]
protein stability index: 2.3
//
polymer_sequence: HQVLMLGQILELPWKEETFLVLQS [A1H]
protein stability index: 1.25
//
polymer_sequence: AQVLMLGQILELPWKEETFLVLAS [Q23A]
protein stability index: 3.11
//
polymer_sequence: AQVLMLGQILEPPWKEETFLVLQS [L12P]
protein stability index: 4.52

// next item, protein stability index requested
Given the entry AQVLMLGQPLELPWKEETFLVLQS [I9P] , report its measured protein stability index.
2.75
